Parameter Fold Increase: see the listing below.
- Test system: SMN2-linked luciferase-reporter gene construct
- EXPERIMENT: SMN Splice Reporter Assay (SMN2-linked luciferase reporter)
- Format: cell-based
- SETTINGS: fold-increase of luciferase over baseline reading of transformed cells without any test compound
- From the text: As previously discussed, SMN1 is the gene deleted in SMA patients; the SMN2 gene remains intact in both SMA and normal patients. […] Cervical carcinoma cell lines were transformed with a SMN2-linked luciferase-reporter gene construct. […] Luciferase sequences are in the correct translational reading frame only when the SMN2 sequences are spliced according to the normal SMN1 mechanism (e.g., splicing to include exon 7), which allows for translation of the stable SMN protein. […]
Could you keep your reply to the number by itself?

- COMPOUND: "Cn1ccc2cc(N3Cc4ccc(OCC(F)(F)F)cc4C3=O)ccc21 [Example 122043]"
  Fold Increase: 1.341
- COMPOUND: "Cc1ccc(N2Cc3cc4c(cc3C2=O)OCCO4)nc1 [Example 118418]"
  Fold Increase: 1.496
- COMPOUND: "CCc1ccc2c(c1)C(=O)N(c1ccc3sccc3c1)C2 [Example 122684]"
  Fold Increase: 1.665
- COMPOUND: "CCC(C)c1ccc2c(c1)C(=O)N(c1ccc3c(c1)cc(C)n3C)C2 (centres unmarked) [Example 123329]"
  Fold Increase: 1.327

Now look at this entry.
Item: COc1ccc2c(c1)C(=O)N(c1ccc3c(N(C)C)ccnc3c1)C2 [Example 124037] | System: SMN2-linked luciferase-reporter gene construct | Fold Increase: 1.377
